Tested on: SNB-75 CNS
experimentalProtocol: NCI-60 one-dose screen, 48 h (100 = growth as untreated, 0 = no growth, -100 = all killed)
runConditions: 10 µM unless noted
About 83,000 compounds went through this panel and 20% of them were active in at least one assay; those are over-represented in the sample as a whole.

>  <smiles>
NNCCc1ccc(NC(=O)CCCc2ccc(C(=O)Nc3ccccc3N)cc2)cc1

>  <unitAbbrev>
%

>  <growth>
68.2

$$$$
>  <smiles>
c1nc2ccc(-c3cc4ccc5[nH]ncc5c4c4c3CCCC4)cc2[nH]1

>  <unitAbbrev>
%

>  <growth>
71.2

$$$$
>  <smiles>
COC(=O)CCC/C=C\C[C@H]1C=CC(=O)/C1=C/C[C@@H](O)C/C=C\CC(F)(F)F

>  <unitAbbrev>
%

>  <growth>
68.3

$$$$

====

System: SK-MEL-5 melanoma
experimentalProtocol: NCI-60 one-dose screen, 48 h
runConditions: 10 µM unless noted
About 83,000 compounds went through this panel and 20% of them were active in at least one assay; those are over-represented in the sample as a whole. Active and inactive are the calls of the source. The calls were made as follows: active = growth percent below 10; inactive = the rest.
Outcome codes: 1 for active, -1 for inactive

>  <compound>
COc1cc2c(cc1OCCCCN1CCN(C(=S)SCCC(C#N)(c3ccccc3)c3ccccc3)CC1)N=C[C@@H]1CCCN1C2=O

>  <qualitativeLabel>
1

$$$$
>  <compound>
CCCn1nc(C(=O)N(C)Cc2ccccc2)c2c1CCC(N1CCc3ccccc31)C2 (stereo not given)

>  <qualitativeLabel>
-1

$$$$
>  <compound>
O=C(O)/C=C/C(=O)Nc1cccc(Cn2nnc3cc(Cl)c(Cl)cc32)c1

>  <qualitativeLabel>
-1

$$$$
>  <compound>
[2H]C([2H])([2H])Oc1ccc(F)cc1/C=C/C(=O)/C=C(/C=C/c1cc(F)ccc1OC([2H])([2H])[2H])OB(F)F

>  <qualitativeLabel>
-1

$$$$
>  <compound>
O=C(O)c1ccc(-c2ccc(/C=N/Nc3nc(Nc4ccccc4)nc(N4CCCCC4)n3)o2)cc1

>  <qualitativeLabel>
-1

$$$$

====

Test system: UO-31 renal
experimentalProtocol: NCI-60 one-dose screen, 48 h (100 = growth as untreated, 0 = no growth, -100 = all killed)
runConditions: 10 µM unless noted
Compounds without any hit were thinned out: in the full panel of roughly 83,000, 20% have a hit.
valueType: growth (%)

>  <compound>
C=CN(C(=O)N1CCN(c2cc3c(cc2F)c(=O)c(C(=O)O)cn3C2CC2)CC1)c1nc(-c2ccc(OC)cc2)cs1

>  <endpointResult>
15.5

$$$$
>  <compound>
Cc1ccc(NC(=O)Cn2c(Br)nc3c2c(=O)n(C)c(=O)n3C)cc1

>  <endpointResult>
14.1

$$$$
>  <compound>
CCN1C(=O)N(CC)C2C1N=C(SCc1ccc(Cl)cc1)N2/N=C/C=C/c1ccccc1OC (stereo not given)

>  <endpointResult>
54.3

$$$$
>  <compound>
O=C(CCl)NNc1nccc(Nc2ccc(S(=O)(=O)Nc3ccncc3)cc2)n1

>  <endpointResult>
63.3

$$$$
>  <compound>
Cc1ccc(CNc2ccc3nc(CCC(C)C)[nH]c3c2)cc1

>  <endpointResult>
68.6

$$$$
>  <compound>
COc1ccc(/C=C(/C(=O)n2cnnn2)c2cc(OC)c(OC)c(OC)c2)cc1

>  <endpointResult>
42.4

$$$$
>  <compound>
COc1ccc(C(O)c2cc3c(N)c(C(=O)Nc4cccc(Cl)c4C)sc3nc2C)cc1 (stereo not given)

>  <endpointResult>
17.9

$$$$
>  <compound>
O=C(N/N=C\c1cccc([N+](=O)[O-])c1)N/N=C/c1cccc([N+](=O)[O-])c1

>  <endpointResult>
86.8

$$$$
>  <compound>
O=C1/C(=C\c2cccc3nccnc23)SC(=S)N1CCc1ccc(O)cc1

>  <endpointResult>
62.1

$$$$
>  <compound>
Cc1ccc(S(=O)(=O)N2CCC(=O)c3ccccc32)cc1

>  <endpointResult>
71.1

$$$$
>  <compound>
Cc1ccc(CNc2c3ccccc3nc3ccccc23)cc1

>  <endpointResult>
12

$$$$
>  <compound>
O=C(Nc1ncc(Cc2cc(C(F)(F)F)ccc2Cl)s1)c1cccs1

>  <endpointResult>
58.9

$$$$
>  <compound>
CCOC(=O)c1nn(CC(O)c2ccccc2)c(NC(=O)Nc2cccc(F)c2)c1C (stereo not given)

>  <endpointResult>
90.1

$$$$
>  <compound>
C#CC#CC#CC#CC#CC#CC#CC#CC[C@@H]1OC[C@@H](COC(=O)O[C@@H](C(=O)O[C@H]2C[C@@]3(O)[C@@H](OC(=O)c4ccccc4)[C@@H]4[C@]5(OC(C)=O)CO[C@@H]5C[C@H](O)[C@@]4(C)C(=O)[C@H](OC(C)=O)C(=C2C)C3(C)C)[C@@H](NC(=O)c2ccccc2)c2ccccc2)O1

>  <endpointResult>
35.2

$$$$
>  <compound>
CCOc1c(OC)cc2c(c1O)C(=O)N[C@@H]1[C@@H](O)[C@@H](O)[C@H](O)C[C@@H]21

>  <endpointResult>
92.9

$$$$
>  <compound>
C=C1C(=O)O[C@H]2[C@H]1CC/C(COC(=O)/C=C/C(=O)OC/C1=C/CC[C@@]3(C)O[C@H]3[C@H]3OC(=O)C(=C)[C@@H]3CC1)=C\CC[C@@]1(C)O[C@@H]21

>  <endpointResult>
-41.7

$$$$
>  <compound>
C#Cc1cccc(Nc2nc(C)nc3cc(NC(=O)CCl)ccc23)c1

>  <endpointResult>
-91.8

$$$$
>  <compound>
O=c1cc(-c2ccccc2)[nH]c2ncc(-c3ccc(F)cc3)n12

>  <endpointResult>
69.2

$$$$
>  <compound>
COC(=O)c1nc(-c2ccccc2)oc1S(=O)(=O)NCC(c1ccc(Cl)cc1)N1CCOCC1 (stereo not given)

>  <endpointResult>
60

$$$$
>  <compound>
Cc1ccc2nc(-c3ccc(C(=O)NNC(=S)Nc4ccccc4)cc3)[nH]c2c1

>  <endpointResult>
89.8

$$$$
>  <compound>
NC1(CO)COC(c2ccccc2)OC1 (stereo not given)

>  <endpointResult>
87.6

$$$$
>  <compound>
C=C1C(=O)O[C@H]2[C@H]1CC/C(COC(=O)c1ccc(C(=O)O)s1)=C\CC[C@@]1(C)O[C@@H]21

>  <endpointResult>
29

$$$$
>  <compound>
C#CC#CC#CC#CC#CC#CC#CC#CCC1OC[C@H](COC(=O)O[C@@H](C(=O)O[C@H]2C[C@@]3(O)[C@@H](OC(=O)c4ccccc4)[C@@H]4[C@]5(OC(C)=O)CO[C@@H]5C[C@H](O)[C@@]4(C)C(=O)[C@H](OC(C)=O)C(=C2C)C3(C)C)[C@@H](NC(=O)c2ccccc2)c2ccccc2)O1 (stereo not given in full)

>  <endpointResult>
95.1

$$$$
>  <compound>
OCCNCCNC(Cc1ccc(Cl)cc1)c1ccccc1 (stereo not given)

>  <endpointResult>
64.5

$$$$
>  <compound>
CCOC(=O)C(=CNc1cnc(Nc2ccc(N3CCOCC3)cc2)nc1Oc1ccc(OC)cc1)C(=O)OCC

>  <endpointResult>
11.3

$$$$
>  <compound>
O=C1/C(=C/c2ccccn2)NC(=S)N1c1ccccc1Cl

>  <endpointResult>
36.4

$$$$
>  <compound>
COc1cccc(C(=O)NNc2nc(Cl)nc(Cl)n2)c1

>  <endpointResult>
88.4

$$$$
>  <compound>
CC1(C)NCCC[C@]2(C)[C@H]3CC[C@H]4[C@H]5[C@H](C(=O)/C=C/c6cccnc6)CCC[C@]5(CO)CC[C@@]4(C)[C@]3(C)CC[C@@H]12

>  <endpointResult>
57.8

$$$$
>  <compound>
COc1cccc(NCc2nnc(Nc3ccc(Cl)cc3)c3ccccc23)c1

>  <endpointResult>
-42.5

$$$$
>  <compound>
C=CCN1C(=O)c2cccc3c(N4CCOCC4)ccc(c23)C1=O

>  <endpointResult>
-3.07

$$$$
